target.of.assay: T1, human HER2 (human, UniProt P04626 23-1255)
T1 construct: also called hHER2
measurement.protocol: FACS CHO-HER2, 222 nM
measured.parameter: MCF

binder | measured.parameter | test.value
21F06 (VHH, c-myc, His6-tagged form as expressed; also called 21F6; HER3MS21F06) VHH: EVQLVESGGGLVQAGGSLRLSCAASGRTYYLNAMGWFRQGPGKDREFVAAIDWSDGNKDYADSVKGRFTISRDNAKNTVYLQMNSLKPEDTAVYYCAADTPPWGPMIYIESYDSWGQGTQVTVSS | MCF | 84
23F05 (VHH) VHH: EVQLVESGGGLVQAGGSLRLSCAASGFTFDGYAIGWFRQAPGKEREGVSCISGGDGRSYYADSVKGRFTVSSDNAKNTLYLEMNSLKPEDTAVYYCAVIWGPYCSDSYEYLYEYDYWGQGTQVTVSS | MCF | 97
04C07 (VHH, also called HER3MS04C07; HER3MS004C07) VHH: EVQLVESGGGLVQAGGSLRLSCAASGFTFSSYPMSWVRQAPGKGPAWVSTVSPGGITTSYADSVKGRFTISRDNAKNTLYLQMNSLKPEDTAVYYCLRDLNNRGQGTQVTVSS | MCF | 84
